I'd appreciate it if you could supply shrunken log2 fold change values for the items below.
Tested on: Escherichia coli TOP10
method_notes: shrunken log2 fold change of peptide-encoding DNA abundance (4.5 h post-induction vs induction); higher = less antimicrobial activity (less host growth inhibition)
measurement_setup: time post-induction: 4.5 h; library: site-saturation at positions 5, 18, 19, 20
Reply: number alone, nothing else.

Look up and report measured shrunken log2 fold change for this entry: RRIRKRPPRLPRPRPRPCSPPRP
-0.102

Look up and report measured shrunken log2 fold change for this entry: RRIRRRPPRLPRPRPRPFVGPRP
-0.229

Look up and report measured shrunken log2 fold change for this entry: RRIRTRPPRLPRPRPRPQPLPRP
0.284

Look up and report measured shrunken log2 fold change for this entry: RRIRRRPPRLPRPRPRPKYGPRP
-0.000734

Look up and report measured shrunken log2 fold change for this entry: RRIRKRPPRLPRPRPRPQEQPRP
0.225

Look up and report measured shrunken log2 fold change for this entry: RRIRKRPPRLPRPRPRPCDSPRP
-0.212

Look up and report measured shrunken log2 fold change for this entry: RRIRTRPPRLPRPRPRPKQVPRP
-0.0584

Look up and report measured shrunken log2 fold change for this entry: RRIRMRPPRLPRPRPRPYYMPRP
-0.0189

Look up and report measured shrunken log2 fold change for this entry: RRIRDRPPRLPRPRPRPHGLPRP
-0.0404

Look up and report measured shrunken log2 fold change for this entry: RRIRQRPPRLPRPRPRPMSQPRP
-0.0185

Look up and report measured shrunken log2 fold change for this entry: RRIRGRPPRLPRPRPRPGNLPRP
-0.639

Look up and report measured shrunken log2 fold change for this entry: RRIRHRPPRLPRPRPRPTEFPRP
-0.153

Look up and report measured shrunken log2 fold change for this entry: RRIRTRPPRLPRPRPRPKFYPRP
-0.272

Look up and report measured shrunken log2 fold change for this entry: RRIRRRPPRLPRPRPRPCPVPRP
-0.256

Look up and report measured shrunken log2 fold change for this entry: RRIRKRPPRLPRPRPRPFTAPRP
-0.291

###

Tested on: Escherichia coli TOP10
method_notes: shrunken log2 fold change of peptide-encoding DNA abundance (4.5 h post-induction vs induction); higher = less antimicrobial activity (less host growth inhibition)
measurement_setup: time post-induction: 4.5 h; library: site-saturation at positions 5, 18, 19, 20
// label = yes if shrunken log2 fold change is not less than -0.03, otherwise no

Could you tell me if the measured shrunken log2 fold change of RRIRARPPRLPRPRPRPSSPPRP reaches -0.03 or more?
yes

Could you tell me if the measured shrunken log2 fold change of RRIRVRPPRLPRPRPRPDCHPRP reaches -0.03 or more?
no

Could you tell me if the measured shrunken log2 fold change of RRIRSRPPRLPRPRPRPWNFPRP reaches -0.03 or more?
yes

Could you tell me if the measured shrunken log2 fold change of RRIRHRPPRLPRPRPRPAPGPRP reaches -0.03 or more?
yes

Could you tell me if the measured shrunken log2 fold change of RRIRLRPPRLPRPRPRPVLAPRP reaches -0.03 or more?
yes

Could you tell me if the measured shrunken log2 fold change of RRIRIRPPRLPRPRPRPSICPRP reaches -0.03 or more?
no

Could you tell me if the measured shrunken log2 fold change of RRIRLRPPRLPRPRPRPHQVPRP reaches -0.03 or more?
yes

Could you tell me if the measured shrunken log2 fold change of RRIRDRPPRLPRPRPRPWGDPRP reaches -0.03 or more?
yes

Could you tell me if the measured shrunken log2 fold change of RRIRGRPPRLPRPRPRPIWKPRP reaches -0.03 or more?
yes

Could you tell me if the measured shrunken log2 fold change of RRIRNRPPRLPRPRPRPWDDPRP reaches -0.03 or more?
yes

Could you tell me if the measured shrunken log2 fold change of RRIRKRPPRLPRPRPRPAQNPRP reaches -0.03 or more?
yes

Could you tell me if the measured shrunken log2 fold change of RRIRTRPPRLPRPRPRPGACPRP reaches -0.03 or more?
no

Could you tell me if the measured shrunken log2 fold change of RRIRVRPPRLPRPRPRPACRPRP reaches -0.03 or more?
no

Could you tell me if the measured shrunken log2 fold change of RRIRGRPPRLPRPRPRPMWKPRP reaches -0.03 or more?
yes

Could you tell me if the measured shrunken log2 fold change of RRIRQRPPRLPRPRPRPQDKPRP reaches -0.03 or more?
no

Could you tell me if the measured shrunken log2 fold change of RRIRSRPPRLPRPRPRPAESPRP reaches -0.03 or more?
no

Could you tell me if the measured shrunken log2 fold change of RRIRCRPPRLPRPRPRPKRKPRP reaches -0.03 or more?
yes

Could you tell me if the measured shrunken log2 fold change of RRIRHRPPRLPRPRPRPRMCPRP reaches -0.03 or more?
yes

Could you tell me if the measured shrunken log2 fold change of RRIRGRPPRLPRPRPRPDWQPRP reaches -0.03 or more?
yes

Could you tell me if the measured shrunken log2 fold change of RRIRFRPPRLPRPRPRPLHNPRP reaches -0.03 or more?
no

Could you tell me if the measured shrunken log2 fold change of RRIRTRPPRLPRPRPRPSMQPRP reaches -0.03 or more?
no

Could you tell me if the measured shrunken log2 fold change of RRIRPRPPRLPRPRPRPQDNPRP reaches -0.03 or more?
no

Could you tell me if the measured shrunken log2 fold change of RRIRKRPPRLPRPRPRPWPTPRP reaches -0.03 or more?
yes

Could you tell me if the measured shrunken log2 fold change of RRIRIRPPRLPRPRPRPNFPPRP reaches -0.03 or more?
no

Could you tell me if the measured shrunken log2 fold change of RRIRIRPPRLPRPRPRPFALPRP reaches -0.03 or more?
no

Could you tell me if the measured shrunken log2 fold change of RRIRIRPPRLPRPRPRPTNNPRP reaches -0.03 or more?
no

Could you tell me if the measured shrunken log2 fold change of RRIRVRPPRLPRPRPRPVWVPRP reaches -0.03 or more?
no

Could you tell me if the measured shrunken log2 fold change of RRIRARPPRLPRPRPRPQPAPRP reaches -0.03 or more?
yes

Could you tell me if the measured shrunken log2 fold change of RRIRKRPPRLPRPRPRPHMTPRP reaches -0.03 or more?
yes

Could you tell me if the measured shrunken log2 fold change of RRIRQRPPRLPRPRPRPVIPPRP reaches -0.03 or more?
no

Could you tell me if the measured shrunken log2 fold change of RRIRRRPPRLPRPRPRPNYEPRP reaches -0.03 or more?
yes

Could you tell me if the measured shrunken log2 fold change of RRIRGRPPRLPRPRPRPCICPRP reaches -0.03 or more?
yes

###

I'd appreciate it if you could supply shrunken log2 fold change values for the items below.
Tested on: Escherichia coli TOP10
method_notes: shrunken log2 fold change of peptide-encoding DNA abundance (4.5 h post-induction vs induction); higher = less antimicrobial activity (less host growth inhibition)
measurement_setup: time post-induction: 4.5 h; library: site-saturation at positions 5, 18, 19, 20
Reply: number alone, nothing else.

Look up and report measured shrunken log2 fold change for this entry: RRIRVRPPRLPRPRPRPCERPRP
-0.00992

Look up and report measured shrunken log2 fold change for this entry: RRIRVRPPRLPRPRPRPMRIPRP
0.218

Look up and report measured shrunken log2 fold change for this entry: RRIRMRPPRLPRPRPRPCCWPRP
0.787

Look up and report measured shrunken log2 fold change for this entry: RRIRLRPPRLPRPRPRPIFFPRP
0.103

Look up and report measured shrunken log2 fold change for this entry: RRIRIRPPRLPRPRPRPEQDPRP
0.0197

Look up and report measured shrunken log2 fold change for this entry: RRIRGRPPRLPRPRPRPQPRPRP
0.9

Look up and report measured shrunken log2 fold change for this entry: RRIRSRPPRLPRPRPRPFCFPRP
-0.069

Look up and report measured shrunken log2 fold change for this entry: RRIRVRPPRLPRPRPRPNQNPRP
-0.312

Look up and report measured shrunken log2 fold change for this entry: RRIRMRPPRLPRPRPRPSKQPRP
0.495

Look up and report measured shrunken log2 fold change for this entry: RRIRYRPPRLPRPRPRPRSHPRP
-0.267

Look up and report measured shrunken log2 fold change for this entry: RRIRERPPRLPRPRPRPGFQPRP
-0.104

Look up and report measured shrunken log2 fold change for this entry: RRIRQRPPRLPRPRPRPDRNPRP
-0.176

Look up and report measured shrunken log2 fold change for this entry: RRIRIRPPRLPRPRPRPQKNPRP
-0.355

Look up and report measured shrunken log2 fold change for this entry: RRIRLRPPRLPRPRPRPTCDPRP
-0.202

Look up and report measured shrunken log2 fold change for this entry: RRIRTRPPRLPRPRPRPMAFPRP
-0.0075

###

System: Escherichia coli TOP10;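 note: peptides expressed intracellularly from a pBAD plasmid library in pooled LB shake-flask culture, induced with 0.3% L-arabinose, DNA abundance read by NGS, three biological replicates, DESeq2 with apeglm shrinkage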
method_notes: shrunken log2 fold change of peptide-encoding DNA abundance (4.5 h post-induction vs induction); higher = less antimicrobial activity (less host growth inhibition)
measurement_setup: time post-induction: 4.5 h; library: site-saturation at positions 5, 18, 19, 20
I'd appreciate it if you could supply shrunken log2 fold change values for the items below.
Reply: number alone, nothing else.

Look up and report measured shrunken log2 fold change for this entry: RRIRTRPPRLPRPRPRPYDTPRP
-0.661

Look up and report measured shrunken log2 fold change for this entry: RRIRVRPPRLPRPRPRPMISPRP
-0.237

Look up and report measured shrunken log2 fold change for this entry: RRIRVRPPRLPRPRPRPPSFPRP
0.0364

Look up and report measured shrunken log2 fold change for this entry: RRIRMRPPRLPRPRPRPYPDPRP
-0.0456

Look up and report measured shrunken log2 fold change for this entry: RRIRHRPPRLPRPRPRPPLYPRP
-0.151

Look up and report measured shrunken log2 fold change for this entry: RRIRHRPPRLPRPRPRPTFIPRP
-0.114

Look up and report measured shrunken log2 fold change for this entry: RRIRDRPPRLPRPRPRPGDIPRP
-0.0568

Look up and report measured shrunken log2 fold change for this entry: RRIRPRPPRLPRPRPRPCFCPRP
0.299
